- System: MCF7
- assay-method-text: Cytostatic activity against human MCF7 cells preincubated for 3 hrs followed by serum treatment for 72 hrs measured on day 4 by MTT assay
- Assay type: functional, cell-based
Residues, ends and D or L forms follow the SMILES beside them. *: point of attachment. DAMPA = CN(Cc1cnc2nc(N)nc(N)c2n1)c1ccc(C(=O)*)cc1
experimental-endpoint: IC50 (µM)

• N=C(N)NCCC[C@H](NC(=O)[C@H](CCCNC(=N)N)NC(=O)[C@H](CCCNC(=N)N)NC(=O)[C@H](CCCNC(=N)N)NC(=O)[C@H](CCCNC(=N)N)NC(=O)[C@H](CCCNC(=N)N)NC(=O)[C@H](CCCNC(=N)N)NC(=O)[C@@H](N)CCCNC(=N)N)C(=O)O = 100
• CC(C)C[C@H](NC(=O)[C@H](Cc1ccccc1)NC(=O)CNC(=O)[C@H](CCC(=O)O)NC(=O)c1ccc(N(C)Cc2cnc3nc(N)nc(N)c3n2)cc1)C(=O)NCC(=O)N[C@@H](CCCNC(=N)N)C(=O)N[C@@H](CCCNC(=N)N)C(=O)N[C@@H](CCCNC(=N)N)C(=O)N[C@@H](CCCNC(=N)N)C(=O)N[C@@H](CCCNC(=N)N)C(=O)N[C@@H](CCCNC(=N)N)C(=O)N[C@@H](CCCNC(=N)N)C(=O)N[C@@H](CCCNC(=N)N)C(=O)O ({DAMPA}-EGFLGRRRRRRRR-OH) = 31.3
• CN(Cc1cnc2nc(N)nc(N)c2n1)c1ccc(C(=O)N[C@@H](CCC(=O)O)C(=O)O)cc1 [METHOTREXATE] = 0.8
